molecular target: MOR (Mus musculus), P42866; test: radioligand; conditions: modification not given
Sequence (P42866 whole entry): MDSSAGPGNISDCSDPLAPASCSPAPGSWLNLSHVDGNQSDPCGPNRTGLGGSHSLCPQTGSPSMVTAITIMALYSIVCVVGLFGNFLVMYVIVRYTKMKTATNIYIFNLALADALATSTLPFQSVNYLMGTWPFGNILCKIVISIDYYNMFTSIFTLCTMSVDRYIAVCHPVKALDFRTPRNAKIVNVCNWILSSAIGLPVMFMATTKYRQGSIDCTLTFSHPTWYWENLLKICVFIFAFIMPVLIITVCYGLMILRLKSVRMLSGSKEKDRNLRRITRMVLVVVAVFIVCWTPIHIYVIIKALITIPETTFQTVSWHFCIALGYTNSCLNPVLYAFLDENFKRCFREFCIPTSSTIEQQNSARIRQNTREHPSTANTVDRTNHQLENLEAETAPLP
Consider the following binders; for each one, report its Ki.

> print(dat)
                binder  measurement.type  value.observed
1  YAFEIIG [peptide 1]                Ki       > 1000 nM

INPUT: # input binder: YAFEVVG [[D-Ala2]deltorphin II] ; wanted: its Ki
OUTPUT: > 1000 nM
